Reported values of mass density for individual entries
Conditions: 298.15 K; 101.33 kPa; Liquid; Vibrating tube method
Field: numeric (kg/m3). Do not append units.

compound="c1ccsc1 [thiophene]" observed_value=1058.56
compound="CCCC[n+]1ccc(C)cc1.N#CC(=C=[N-])C#N [1-butyl-4-methylpyridinium tricyanomethanide]" observed_value=1036.62
compound="CCCC[N+]1(C)CCCC1.N#CC(=C=[N-])C#N [1-butyl-1-methylpyrrolidinium tricyanomethanide]" observed_value=1006.75

Pending compound:
Request: State the recorded mass density for this entry: c1ccncc1 [pyridine]
Response: 982.85
